# Tested on: Mus musculus
# testName: Toxicity in PS mouse allografted with mouse P388 cells assessed as change in body weight at 3.1 ug/kg relative to control
# Format: organism-based
# testContext: in vivo, 0.0031 mg/kg

molecule	Activity (g)
COc1cc2cc(c1Cl)N(C)C(=O)C[C@H](OC(=O)C(C)C)[C@]1(C)O[C@H]1[C@H](C)[C@@H]1C[C@@](O)(NC(=O)O1)[C@H](OC)/C=C/C=C(\C)C2OC(C)=O (stereo partly specified)	-0.4
CCC(=O)O[C@H]1CC(=O)N(C)c2cc(cc(OC)c2Cl)C/C(C)=C/C=C/[C@@H](OC)[C@@]2(O)C[C@H](OC(=O)N2)[C@@H](C)[C@@H]2O[C@@]12C	1.3
COc1cc2cc(c1Cl)NC(=O)/C=C/C(C)=C/[C@H](C)[C@@H]1C[C@@](O)(NC(=O)O1)[C@H](OC)/C=C/C=C(\C)C2	1.4
COc1cc2cc(c1Cl)N(C)C(=O)C[C@H](OC(=O)CBr)[C@]1(C)O[C@H]1[C@H](C)[C@@H]1C[C@@](O)(NC(=O)O1)[C@H](OC)/C=C/C=C(\C)C2	-0.2
CCCS[C@]12C[C@H](OC(=O)N1)[C@@H](C)[C@@H]1O[C@@]1(C)[C@@H](OC(=O)[C@H](C)N(C)C(=O)C(C)C)CC(=O)N(C)c1cc(cc(OC)c1Cl)C/C(C)=C/C=C/[C@H]2OC	0.6
COc1cc2cc(c1Cl)N(C)C(=O)C[C@H](OC(=O)[C@H](C)N(C)C(C)=O)[C@]1(C)O[C@H]1[C@H](C)[C@@H]1C[C@@](O)(NC(=O)O1)[C@H](OC)/C=C/C=C(\C)C2	-0.1
COc1cc2cc(c1Cl)N(C)C(=O)/C=C/[C@]1(C)O[C@H]1[C@H](C)[C@@H]1C[C@@](O)(NC(=O)O1)[C@H](OC)/C=C/C=C(\C)C2	0.4
CCC(=O)N(C)[C@@H](C)C(=O)O[C@H]1CC(=O)N(C)c2cc(cc(OC)c2Cl)C/C(C)=C/C=C/[C@@H](OC)[C@@]2(O)C[C@H](OC(=O)N2)[C@@H](C)[C@@H]2O[C@@]12C	-0.6
COc1cc2cc(c1Cl)NC(=O)/C=C/[C@]1(C)O[C@H]1[C@H](C)[C@@H]1C[C@@](O)(NC(=O)O1)[C@H](OC)/C=C/C=C(\C)C2	-0.2
CCO[C@]12C[C@H](OC(=O)N1)[C@@H](C)[C@@H]1O[C@@]1(C)[C@@H](OC(=O)[C@H](C)N(C)C(C)=O)CC(=O)N(C)c1cc(cc(OC)c1Cl)C/C(C)=C/C=C/[C@H]2OC	-0.7
C/C=C/C(=O)O[C@H]1CC(=O)N(C)c2cc(cc(OC)c2Cl)C/C(C)=C/C=C/[C@@H](OC)[C@@]2(O)C[C@H](OC(=O)N2)[C@@H](C)[C@@H]2O[C@@]12C	-1.7
COc1cc2cc(c1Cl)N(C)C(=O)C[C@H](OC(=O)[C@H](C)N(C)C(=O)C(C)C)[C@]1(C)O[C@H]1[C@H](C)[C@@H]1C[C@@](OC)(NC(=O)O1)[C@H](OC)/C=C/C=C(\C)C2	-1.1
COc1cc2cc(c1Cl)N(C)C(=O)CC(O)C1(C)OC1C(C)C1CC(O)(NC(=O)O1)C(OC)/C=C/C=C(\C)C2 (stereo unspecified)	0.9
COc1cc2cc(c1Cl)N(C)C(=O)C[C@H](OC(=O)[C@H](C)N(C)C(=O)C(C)C)[C@]1(C)O[C@H]1[C@H](C)[C@@H]1C[C@@](O)(NC(=O)O1)[C@H](OC)/C=C/C=C(\C)C2	-0.9
COc1cc2cc(c1Cl)N(C)C(=O)C[C@H](OC(C)=O)[C@]1(C)O[C@H]1[C@H](C)[C@@H]1C[C@@](O)(NC(=O)O1)[C@H](OC)/C=C/C=C(\C)C2	-1
COc1cc2cc(c1Cl)N(C)C(=O)C[C@H](OC(=O)[C@H](C)N(C)C(=O)CC(C)C)[C@]1(C)O[C@H]1[C@H](C)[C@@H]1C[C@@](O)(NC(=O)O1)[C@H](OC)/C=C/C=C(\C)C2	0.2

###

# Lookup of reported EC50 keyed by entry
# Test system: KB
# testName: Cytotoxicity against human KB cells
# Type: functional
# testContext: read-out: ED50 (the source's name)
observable: EC50

lineNotation	result
COc1cc2cc(c1Cl)N(C)C(=O)C[C@H](OC(=O)[C@H](C)N(C)C(=O)C(C)C)[C@]1(C)O[C@H]1[C@H](C)[C@@H]1C[C@@](OC)(NC(=O)O1)[C@H](OC)/C=C/C=C(\C)C2	0.16 ng/mL
COc1cc2cc(c1Cl)N(C)C(=O)C[C@H](OC(C)=O)[C@]1(C)O[C@H]1[C@H](C)[C@@H]1C[C@@](O)(NC(=O)O1)[C@H](OC)/C=C/C=C(\C)C2	0.0018 ng/mL
COc1cc2cc(c1Cl)NC(=O)/C=C/[C@]1(C)O[C@H]1[C@H](C)[C@@H]1C[C@@](O)(NC(=O)O1)[C@H](OC)/C=C/C=C(\C)C2	19 ng/mL

###

# System: Mus musculus
# testName: Toxicity in PS mouse allografted with mouse P388 cells assessed as change in body weight at 25 ug/kg relative to control
# Type: organism-based
# testContext: in vivo, 0.025 mg/kg

lineNotation	unitOfMeasure	Activity
COc1cc2cc(c1Cl)N(C)C(=O)C[C@H](OC(=O)CBr)[C@]1(C)O[C@H]1[C@H](C)[C@@H]1C[C@@](O)(NC(=O)O1)[C@H](OC)/C=C/C=C(\C)C2	g	-0.5
CCC(=O)O[C@H]1CC(=O)N(C)c2cc(cc(OC)c2Cl)C/C(C)=C/C=C/[C@@H](OC)[C@@]2(O)C[C@H](OC(=O)N2)[C@@H](C)[C@@H]2O[C@@]12C	g	-0.5
CCO[C@]12C[C@H](OC(=O)N1)[C@@H](C)[C@@H]1O[C@@]1(C)[C@@H](OC(=O)[C@H](C)N(C)C(C)=O)CC(=O)N(C)c1cc(cc(OC)c1Cl)C/C(C)=C/C=C/[C@H]2OC	g	-0.3
C/C=C/C(=O)O[C@H]1CC(=O)N(C)c2cc(cc(OC)c2Cl)C/C(C)=C/C=C/[C@@H](OC)[C@@]2(O)C[C@H](OC(=O)N2)[C@@H](C)[C@@H]2O[C@@]12C	g	-3.6
COc1cc2cc(c1Cl)N(C)C(=O)C[C@H](OC(=O)[C@H](C)N(C)C(C)=O)[C@]1(C)O[C@H]1[C@H](C)[C@@H]1C[C@@](O)(NC(=O)O1)[C@H](OC)/C=C/C=C(\C)C2	g	0.6
CCC(=O)N(C)[C@@H](C)C(=O)O[C@H]1CC(=O)N(C)c2cc(cc(OC)c2Cl)C/C(C)=C/C=C/[C@@H](OC)[C@@]2(O)C[C@H](OC(=O)N2)[C@@H](C)[C@@H]2O[C@@]12C	g	-2.2
COc1cc2cc(c1Cl)N(C)C(=O)C[C@H](OC(=O)[C@H](C)N(C)C(=O)C(C)C)[C@]1(C)O[C@H]1[C@H](C)[C@@H]1C[C@@](OC)(NC(=O)O1)[C@H](OC)/C=C/C=C(\C)C2	g	-0.5

###

# Tested on: Mus musculus
# testName: Toxicity in PS mouse allografted with mouse P388 cells assessed as change in body weight at 400 ug/kg relative to control
# Format: organism-based
# testContext: in vivo, 0.4 mg/kg

compound	Activity / g
CCCS[C@]12C[C@H](OC(=O)N1)[C@@H](C)[C@@H]1O[C@@]1(C)[C@@H](OC(=O)[C@H](C)N(C)C(=O)C(C)C)CC(=O)N(C)c1cc(cc(OC)c1Cl)C/C(C)=C/C=C/[C@H]2OC	0.6
COc1cc2cc(c1Cl)N(C)C(=O)C[C@H](OC(=O)[C@H](C)N(C)C(=O)C(C)C)[C@]1(C)O[C@H]1[C@H](C)[C@@H]1C[C@@](OC)(NC(=O)O1)[C@H](OC)/C=C/C=C(\C)C2	-3
COc1cc2cc(c1Cl)N(C)C(=O)CC(O)C1(C)OC1C(C)C1CC(O)(NC(=O)O1)C(OC)/C=C/C=C(\C)C2 (configuration not stated)	-2.6
CCCS[C@]12C[C@H](OC(=O)N1)[C@@H](C)[C@@H]1O[C@@]1(C)[C@@H](OC(=O)[C@H](C)N(C)C(C)=O)CC(=O)N(C)c1cc(cc(OC)c1Cl)C/C(C)=C/C=C/[C@H]2OC	-0.7
COc1cc2cc(c1Cl)N(C)C(=O)C[C@H](OC(=O)[C@H](C)N(C)C(C)=O)[C@]1(C)O[C@H]1[C@H](C)[C@@H]1C[C@@](OC)(NC(=O)O1)[C@H](OC)/C=C/C=C(\C)C2	-0.9
CCO[C@]12C[C@H](OC(=O)N1)[C@@H](C)[C@@H]1O[C@@]1(C)[C@@H](OC(=O)[C@H](C)N(C)C(=O)C(C)C)CC(=O)N(C)c1cc(cc(OC)c1Cl)C/C(C)=C/C=C/[C@H]2OC	-0.9
CCO[C@]12C[C@H](OC(=O)N1)[C@@H](C)[C@@H]1O[C@@]1(C)[C@@H](OC(=O)[C@H](C)N(C)C(C)=O)CC(=O)N(C)c1cc(cc(OC)c1Cl)C/C(C)=C/C=C/[C@H]2OC	-0.6
